- system-name: Kappa-type opioid receptor (Homo sapiens, UniProt P41145)
- Sequence (P41145 whole entry): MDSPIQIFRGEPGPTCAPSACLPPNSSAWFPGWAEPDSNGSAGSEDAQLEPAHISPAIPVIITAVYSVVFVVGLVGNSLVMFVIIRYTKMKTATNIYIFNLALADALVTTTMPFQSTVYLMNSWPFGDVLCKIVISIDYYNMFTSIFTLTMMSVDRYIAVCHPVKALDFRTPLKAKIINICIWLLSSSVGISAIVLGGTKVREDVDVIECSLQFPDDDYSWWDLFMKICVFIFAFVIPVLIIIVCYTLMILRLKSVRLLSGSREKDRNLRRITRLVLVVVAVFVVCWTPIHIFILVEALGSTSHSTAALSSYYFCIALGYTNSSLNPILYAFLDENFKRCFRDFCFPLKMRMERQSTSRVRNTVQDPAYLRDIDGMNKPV
- assay-protocol: DRUGMATRIX: Opiate kappa (OP2, KOP) radioligand binding (ligand: [3H] Diprenorphine)
- Assay type: cell membranes, HEK293, Membrane
- study-conditions: hek293; Not Active = under 50% inhibition at 10 µM

| compound | system-name | IC50 |
| --- | --- | --- |
| CC(C)NNC(=O)c1ccncc1 | Kappa-type opioid receptor (Homo sapiens, UniProt P41145) | Not Active |
| CO[C@H]1/C=C/O[C@@]2(C)Oc3c(C)c(O)c4c(O)c(c(/C=N/N5CCN(C6CCCC6)CC5)c(O)c4c3C2=O)NC(=O)/C(C)=C\C=C\[C@H](C)[C@H](O)[C@@H](C)[C@@H](O)[C@@H](C)[C@H](OC(C)=O)[C@@H]1C | Kappa-type opioid receptor (Homo sapiens, UniProt P41145) | Not Active |
| C[C@@H]1CC[C@@]2(OC1)O[C@H]1[C@@H](O)[C@H]3[C@@H]4CC[C@H]5C[C@@H](O[C@@H]6O[C@H](CO)[C@H](O[C@@H]7O[C@H](CO)C(O)[C@H](O[C@@H]8OC[C@@H](O)[C@H](O)[C@H]8O)[C@H]7O[C@@H]7O[C@H](CO)[C@H](O)[C@H](O[C@@H]8O[C@H](CO)[C@@H](O)[C@H](O)[C@H]8O)[C@H]7O)[C@H](O)[C@H]6O)[C@H](O)C[C@]5(C)[C@H]4CC[C@]3(C)[C@H]1[C@@H]2C (some centres undefined) | Kappa-type opioid receptor (Homo sapiens, UniProt P41145) | Not Active |
| Oc1c(Cl)cc(Cl)c(Cl)c1Cc1c(O)c(Cl)cc(Cl)c1Cl | Kappa-type opioid receptor (Homo sapiens, UniProt P41145) | Not Active |
